System: Hepatitis C virus
Experiment: Antiviral activity against HCV genotype 1b Con1 infected in human HuH7.5 cells assessed as inhibition of viral replication after 4 days by luciferase reporter gene assay
Assay type: functional, organism-based, Hepacivirus hominis
Conditions: isolate Con1, Huh7.5, 96 h
endpoint: EC50 (nM)

Before answering, review these 2 worked examples.
item.smiles	unit.abbreviation	assay.value
COc1cnc(O[C@@H]2C[C@@H](C(=O)N[C@]3(C(=O)NS(=O)(=O)C4CC4)C[C@H]3C(F)(F)F)N(C(=O)[C@@H](NC(=O)OC(C)(C)C)C(C)(C)C)C2)c2cc(Cl)ccc12	nM	125
C=CC[C@](C)(NC(=O)[C@@H]1C[C@@H](Oc2ncc(OC)c3ccc(Cl)cc23)CN1C(=O)[C@@H](NC(=O)OC(C)(C)C)C(C)(C)C)C(=O)NS(=O)(=O)C1CC1	nM	23000

P = COc1cnc(O[C@@H]2C[C@@H](C(=O)NC3(C(=O)NS(=O)(=O)C4CC4)CCC3)N(C(=O)[C@@H](NC(=O)OC(C)(C)C)C(C)(C)C)C2)c2cc(Cl)ccc12
Q = COc1cnc(O[C@@H]2C[C@@H](C(=O)N[C@]3(C(=O)NS(=O)(=O)C4CC4)C[C@H]3CC(F)F)N(C(=O)[C@@H](NC(=O)OC(C)(C)C)C(C)(C)C)C2)c2cc(Cl)ccc12
R = CC[C@@H]1C[C@]1(NC(=O)[C@@H]1C[C@@H](Oc2ncc(OC)c3ccc(Cl)cc23)CN1C(=O)[C@@H](NC(=O)OC(C)(C)C)C(C)(C)C)C(=O)NS(=O)(=O)C1CC1
Q: Given 3 compounds, produce a descending ranking by EC50. Show the ranking through the labels, in the order asked for.
Ans: P, Q, R

----------
Assay: Drug uptake in Sprague-Dawley rat liver at 15 mg/kg, po administered via gavage by LC/MS/MS analysis
Format: ADME, organism-based
Conditions: in vivo, read-out: Drug uptake
endpoint: concentration (µM)

A = COc1cnc(O[C@@H]2C[C@@H](C(=O)N[C@]3(C(=O)NS(=O)(=O)C4CC4)C[C@H]3C(F)F)N(C(=O)[C@@H](NC(=O)OC(C)(C)C)C(C)(C)C)C2)c2cc(Cl)ccc12
B = CC[C@@H]1C[C@]1(NC(=O)[C@@H]1C[C@@H](Oc2ncc(OC)c3ccc(Cl)cc23)CN1C(=O)[C@@H](NC(=O)OC(C)(C)C)C(C)(C)C)C(=O)NS(=O)(=O)C1CC1
Q: Which value of concentration is numerically greater: that of A or that of B ? Field: selected label. Fill in the label of the entry you choose.
Ans: B
(B: 40.3 µM, A: 0.27 µM)

----------
Assay: AUC in Sprague-Dawley rat at 15 mg/kg, po administered via gavage or 5 mg/kg, iv administered as 10 mins infusion by LC/MS/MS analysis
Type: ADME, organism-based
Conditions: in vivo
endpoint: AUC at 10 min (µM·h)

A = CC[C@@H]1C[C@]1(NC(=O)[C@@H]1C[C@@H](Oc2ncc(OC)c3ccc(Cl)cc23)CN1C(=O)[C@@H](NC(=O)OC(C)(C)C)C(C)(C)C)C(=O)NS(=O)(=O)C1CC1
B = C=C[C@@H]1C[C@]1(NC(=O)[C@@H]1C[C@@H](Oc2ncc(OC)c3ccc(Cl)cc23)CN1C(=O)[C@@H](NC(=O)OC(C)(C)C)C(C)(C)C)C(=O)NS(=O)(=O)C1CC1
C = COc1cnc(O[C@@H]2C[C@@H](C(=O)N[C@]3(C(=O)NS(=O)(=O)C4CC4)C[C@H]3C(F)F)N(C(=O)[C@@H](NC(=O)OC(C)(C)C)C(C)(C)C)C2)c2cc(Cl)ccc12
D = COc1cnc(O[C@@H]2C[C@@H](C(=O)N[C@]3(C(=O)NS(=O)(=O)C4CC4)C[C@H]3C3CC3)N(C(=O)[C@@H](NC(=O)OC(C)(C)C)C(C)(C)C)C2)c2cc(Cl)ccc12
Q: Could you please order the items by AUC at 10 min, going from the lowest number to the highest? Show the ranking through the labels, in the order asked for.
Ans: C, B, A, D
(C: 0.05 µM·h, B: 1 µM·h, A: 6.89 µM·h, D: 19.6 µM·h)

----------
System: Hepatitis C virus
Assay: Antiviral activity against HCV genotype 1b Con1 infected in human HuH7.5 cells assessed as inhibition of viral replication after 4 days by luciferase reporter gene assay
Assay type: functional, organism-based, Hepacivirus hominis
Settings: isolate Con1, Huh7.5, 96 h
pEC50: −log10 of the molar value.
endpoint: pEC50

Before answering, review these 3 worked examples.
item.smiles	assay.value
COc1cnc(O[C@@H]2C[C@@H](C(=O)NC(C)(C)C(=O)NS(=O)(=O)C3CC3)N(C(=O)[C@@H](NC(=O)OC(C)(C)C)C(C)(C)C)C2)c2cc(Cl)ccc12	< 6.00
COc1cnc(O[C@@H]2C[C@@H](C(=O)N[C@]3(C(=O)NS(=O)(=O)C4CC4)C[C@H]3C(F)F)N(C(=O)[C@@H](NC(=O)OC(C)(C)C)C(C)(C)C)C2)c2cc(Cl)ccc12	8.10 to 8.12
CC[C@H](NC(=O)[C@@H]1C[C@@H](Oc2ncc(OC)c3ccc(Cl)cc23)CN1C(=O)[C@@H](NC(=O)OC(C)(C)C)C(C)(C)C)C(=O)NS(=O)(=O)C1CC1	< 6.00

Proceed to the following item.
Q: Given the entry `CC[C@@H](NC(=O)[C@@H]1C[C@@H](Oc2ncc(OC)c3ccc(Cl)cc23)CN1C(=O)[C@@H](NC(=O)OC(C)(C)C)C(C)(C)C)C(=O)NS(=O)(=O)C1CC1` , report its measured pEC50.
Ans: < 6.00
